Molecular target: T1, LAG3 Protein, Human, Recombinant (His Tag) (Sino Biological Catalog No. 16498-H08H) (human, UniProt P18627 23-450)
T1 construct: Bought protein; also called hLAG3-His; LAG3-His; not shown: His tag
T1 sequence (looked up): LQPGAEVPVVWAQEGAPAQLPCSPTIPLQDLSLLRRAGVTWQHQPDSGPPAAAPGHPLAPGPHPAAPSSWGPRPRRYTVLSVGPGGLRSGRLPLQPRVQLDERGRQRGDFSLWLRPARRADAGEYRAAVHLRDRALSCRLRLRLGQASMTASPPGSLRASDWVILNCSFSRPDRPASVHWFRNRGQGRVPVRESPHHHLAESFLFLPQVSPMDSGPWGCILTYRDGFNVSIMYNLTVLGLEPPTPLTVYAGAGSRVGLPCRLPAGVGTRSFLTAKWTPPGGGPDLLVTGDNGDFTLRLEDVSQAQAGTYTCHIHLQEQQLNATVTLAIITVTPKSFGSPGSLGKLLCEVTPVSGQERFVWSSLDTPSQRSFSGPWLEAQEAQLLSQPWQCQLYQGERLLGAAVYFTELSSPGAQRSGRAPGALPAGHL
Assay: SPR binning on LAG3-His; competitor 27
Rule: measured RU below -7 RU gets met; anything equal to or greater than -7 RU gets not met.

binder: sdAb No. 18 (VHH, Fc of the tested form not described; also called sdAb 18; not shown: Fc part implied by anti-human Fc capture) VHH: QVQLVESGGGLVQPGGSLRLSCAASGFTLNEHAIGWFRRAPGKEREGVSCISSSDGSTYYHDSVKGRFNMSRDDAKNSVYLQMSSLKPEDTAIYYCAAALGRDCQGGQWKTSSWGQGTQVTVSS
class.name: not met
--
binder: sdAb No. 1 (VHH, the tested form was captured by anti-human Fc, its Fc is not described; also called sdAb 1; not shown: Fc part implied by anti-human Fc capture) VHH: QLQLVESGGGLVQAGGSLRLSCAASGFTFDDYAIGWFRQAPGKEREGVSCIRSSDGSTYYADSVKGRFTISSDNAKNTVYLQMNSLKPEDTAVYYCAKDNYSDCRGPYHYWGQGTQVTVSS
class.name: not met
--
binder: sdAb No. 25 (VHH, Fc of the tested form not described; also called sdAb 25; sdAb #25; not shown: Fc part implied by anti-human Fc capture and anti-human IgG Fc detection) VHH: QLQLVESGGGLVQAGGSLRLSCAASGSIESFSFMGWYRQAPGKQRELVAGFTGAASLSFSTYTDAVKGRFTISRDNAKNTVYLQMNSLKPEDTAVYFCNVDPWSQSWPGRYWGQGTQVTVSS
class.name: not met
--
binder: sdAb No. 27 (VHH, Fc of the tested form not described; also called sdAb 27; not shown: Fc part implied by anti-human Fc capture and anti-human IgG Fc detection) VHH: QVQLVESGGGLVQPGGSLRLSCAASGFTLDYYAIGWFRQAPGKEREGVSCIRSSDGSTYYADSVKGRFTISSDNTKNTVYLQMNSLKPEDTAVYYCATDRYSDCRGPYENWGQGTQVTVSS
class.name: not met
--
binder: sdAb No. 21 (VHH, Fc of the tested form not described; also called sdAb 21; not shown: Fc part implied by anti-human Fc capture) VHH: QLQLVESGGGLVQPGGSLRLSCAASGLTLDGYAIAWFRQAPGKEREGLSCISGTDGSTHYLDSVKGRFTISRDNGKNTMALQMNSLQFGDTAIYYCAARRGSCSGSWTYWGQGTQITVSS
class.name: met
--
binder: sdAb No. 20 (VHH, Fc of the tested form not described; also called sdAb 20; not shown: Fc part implied by anti-human Fc capture) VHH: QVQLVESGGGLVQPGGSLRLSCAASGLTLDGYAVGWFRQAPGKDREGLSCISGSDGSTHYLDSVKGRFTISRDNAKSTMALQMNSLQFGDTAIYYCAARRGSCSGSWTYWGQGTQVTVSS
class.name: met
--
binder: sdAb No. 73 (VHH, Fc not described; also called sdAb 73; not shown: Fc part implied by anti-human Fc capture) VHH: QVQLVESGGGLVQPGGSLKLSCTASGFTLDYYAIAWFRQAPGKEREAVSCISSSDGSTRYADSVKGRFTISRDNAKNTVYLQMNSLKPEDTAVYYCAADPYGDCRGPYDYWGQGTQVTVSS
class.name: not met
--
binder: sdAb No. 24 (VHH, Fc of the tested form not described; also called sdAb 24; not shown: Fc part implied by anti-human Fc capture) VHH: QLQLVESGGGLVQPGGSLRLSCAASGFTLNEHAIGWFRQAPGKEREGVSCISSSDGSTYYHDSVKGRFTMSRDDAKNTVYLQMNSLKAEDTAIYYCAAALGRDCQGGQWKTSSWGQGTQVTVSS
class.name: not met
